Item-by-item account of IC50
- PROTOCOL_DETAILS: Half-maximal inhibition of [125I]gastrin binding to guinea pig gastric glands
MEASUREMENT_NAME: IC50 (µM)

COMPOUND	RESULT_MODIFIER	TEST_RESULT
O=C(NC1N=C(c2ccccc2F)c2ccccc2NC1=O)c1ccc([N+](=O)[O-])cc1 (centres undefined)	>	10
CN1C(=O)[C@@H](NC(=O)c2ccc(Cl)cc2)N=C(c2ccccc2F)c2ccccc21	=	0.8
CCCc1ccc(C(=O)NC2N=C(c3ccccc3)c3ccccc3NC2=O)cc1 (centres undefined)	=	80
CN1C(=O)C(NC(=O)[C@@H](Cc2ccccc2)NC(=O)OC(C)(C)C)N=C(c2ccccc2)c2ccccc21 (some centres undefined)	=	26
CN1C(=O)C(NC(=O)c2ccc(C(C)(C)C)cc2)N=C(c2ccccc2F)c2ccccc21 (centres undefined)	=	6.4
CN1C(=O)C(NC(=O)c2ccc(Br)cc2)N=C(c2ccccc2)c2ccccc21 (centres undefined)	=	1.7
O=C(NC1N=C(c2ccccc2F)c2ccccc2NC1=O)c1cc2cc(F)ccc2[nH]1 (centres undefined)	>	10
CN1C(=O)[C@H](NC(=O)c2ccccc2Cl)N=C(c2ccccc2F)c2ccccc21	=	3.7
CN(C(=O)c1cc2ccccc2[nH]1)C1N=C(c2ccccc2)c2ccccc2NC1=O (centres undefined)	>	10
CN1C(=O)C(NC(=O)c2ccc(Cl)cc2)[N+]([O-])=C(c2ccccc2F)c2ccccc21 (centres undefined)	=	2.4
CC(C)(C)OC(=O)N[C@H](Cc1ccccc1)C(=O)NC1N=C(c2ccccc2)c2ccccc2NC1=O (some centres undefined)	>	100
CN1C(=O)C(NC(=O)c2ccccc2Cl)N=C(c2ccccc2)c2ccccc21 (centres undefined)	=	30
CN1C(=O)[C@H](NC(=O)c2cc3ccccc3[nH]2)N=C(c2ccccc2F)c2ccccc21	=	0.24
CSc1ccc(C(=O)NC2N=C(c3ccccc3)c3ccccc3NC2=O)cc1 (centres undefined)	=	8
O=C(/C=C/c1ccccc1)NC1N=C(c2ccccc2F)c2ccccc2NC1=O (centres undefined)	=	3.8
COc1ccc2[nH]c(C(=O)NC3N=C(c4ccccc4F)c4ccccc4NC3=O)cc2c1 (centres undefined)	>	10
O=C(NC1N=C(c2ccccc2)c2ccccc2NC1=O)c1ccc(O)cc1 (centres undefined)	=	31
CN1C(=O)C(NC(=O)c2ccc(Cl)cc2N)N=C(c2ccccc2)c2ccccc21 (centres undefined)	=	1.9
O=C(NC1N=C(c2ccccc2)c2ccccc2NC1=O)c1cc(Cl)cc(Cl)c1 (centres undefined)	=	180
